subject-of-test: T1, cyno FcRn/b2M (cyno, UniProt Q8SPV9 24-297; Q8SPW0 21-119, biotinylated)
T1 construct: bought recombinant biotinylated protein (Immunitrack ITF05 or ACRO FCM-C82W5); also called cFcRn; cFcRn/cb2M
protocol-details: SPR pH 7.4;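 note: surface plasmon resonance kinetics, periplasmic extracts diluted 1:10 flowed over immobilized target at 25 °C, 120 s association then 600–3600 s dissociation, buffer with 150 mM NaCl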
# if measured koff < 0.04 s⁻¹: 1.0  # else: 0.0

Example entries and their recorded answers appear below.
binder: T0263018B11 T28L (VHH, name in Kabat numbering, FLAG3-His6 tagged) VHH: EVQLVESGGGVVQPGGSLRLSCAASGFLFSSYAMYWVRQAPGKGLEWVSAISSGGGSTDYADSVKGRFTISRDNSKNTLYLQMNSLRPEDTALYYCAADTLYTSLTWYSYWGQGTLVTVSS
qualitative-label: 0.0
//
binder: T0263018B11 S101Q (VHH, name in Kabat numbering, FLAG3-His6 tagged) VHH: EVQLVESGGGVVQPGGSLRLSCAASGFTFSSYAMYWVRQAPGKGLEWVSAISSGGGSTDYADSVKGRFTISRDNSKNTLYLQMNSLRPEDTALYYCAADTLYTSLTWYQYWGQGTLVTVSS
qualitative-label: 1.0
//
binder: T0263018B11 S31N (VHH, name in Kabat numbering, FLAG3-His6 tagged) VHH: EVQLVESGGGVVQPGGSLRLSCAASGFTFSNYAMYWVRQAPGKGLEWVSAISSGGGSTDYADSVKGRFTISRDNSKNTLYLQMNSLRPEDTALYYCAADTLYTSLTWYSYWGQGTLVTVSS
qualitative-label: 0.0

Lab note: confirm whether the reported koff for this binder is below 0.04 s⁻¹, equality not counting. binder: T0263018B11 S52aG (VHH, name in Kabat numbering, FLAG3-His6 tagged) VHH: EVQLVESGGGVVQPGGSLRLSCAASGFTFSSYAMYWVRQAPGKGLEWVSAISGGGGSTDYADSVKGRFTISRDNSKNTLYLQMNSLRPEDTALYYCAADTLYTSLTWYSYWGQGTLVTVSS
1.0

Lab note: confirm whether the reported koff for this binder is below 0.04 s⁻¹, equality not counting. binder: T0263018B11 S52aY (VHH, name in Kabat numbering, FLAG3-His6 tagged) VHH: EVQLVESGGGVVQPGGSLRLSCAASGFTFSSYAMYWVRQAPGKGLEWVSAISYGGGSTDYADSVKGRFTISRDNSKNTLYLQMNSLRPEDTALYYCAADTLYTSLTWYSYWGQGTLVTVSS
1.0

Lab note: confirm whether the reported koff for this binder is below 0.04 s⁻¹, equality not counting. binder: T0263018B11 A33S (VHH, name in Kabat numbering, FLAG3-His6 tagged) VHH: EVQLVESGGGVVQPGGSLRLSCAASGFTFSSYSMYWVRQAPGKGLEWVSAISSGGGSTDYADSVKGRFTISRDNSKNTLYLQMNSLRPEDTALYYCAADTLYTSLTWYSYWGQGTLVTVSS
0.0

Lab note: confirm whether the reported koff for this binder is below 0.04 s⁻¹, equality not counting. binder: T0263018B11 T96Q (VHH, name in Kabat numbering, FLAG3-His6 tagged) VHH: EVQLVESGGGVVQPGGSLRLSCAASGFTFSSYAMYWVRQAPGKGLEWVSAISSGGGSTDYADSVKGRFTISRDNSKNTLYLQMNSLRPEDTALYYCAADQLYTSLTWYSYWGQGTLVTVSS
0.0

Lab note: confirm whether the reported koff for this binder is below 0.04 s⁻¹, equality not counting. binder: T0263018B11 A93V (VHH, name in Kabat numbering, FLAG3-His6 tagged) VHH: EVQLVESGGGVVQPGGSLRLSCAASGFTFSSYAMYWVRQAPGKGLEWVSAISSGGGSTDYADSVKGRFTISRDNSKNTLYLQMNSLRPEDTALYYCVADTLYTSLTWYSYWGQGTLVTVSS
0.0

Lab note: confirm whether the reported koff for this binder is below 0.04 s⁻¹, equality not counting. binder: T0263018B11 T57F (VHH, name in Kabat numbering, FLAG3-His6 tagged) VHH: EVQLVESGGGVVQPGGSLRLSCAASGFTFSSYAMYWVRQAPGKGLEWVSAISSGGGSFDYADSVKGRFTISRDNSKNTLYLQMNSLRPEDTALYYCAADTLYTSLTWYSYWGQGTLVTVSS
1.0
